Value source: the supplement of paper PMC9732359

Assay procedure: protein stability index of a GFP-peptide fusion (yeast GPS) (PSI 1-4); higher = more stable; sorted into four equal gates, so the index is relative within each strain
Condition details: doa10∆
protein stability index values by entry
Provide a numeric answer; units are not to be included.

Some sequences with known protein stability index results, for comparison:
### Prompt Look up protein stability index for this sequence: VLKADRSWNEPSKSQTN [YML103C/NUP188]
### Response 2.93

### Prompt Look up protein stability index for this sequence: SFPILDQCVGQVGLNFE [YMR129W/POM152]
### Response 3.07

### Prompt Look up protein stability index for this sequence: SDLLVAPPLENENSNCL [YML103C/NUP188]
### Response 3

Shifting focus to the sequence that follows.
### Prompt Look up protein stability index for this sequence: MDMNEIEDKENSESTTQ [RPT5]
### Response 3.04

---

Assay procedure: protein stability index of a GFP-peptide fusion (yeast GPS) (PSI 1-4); higher = more stable; sorted into four equal gates, so the index is relative within each strain
Condition details: ubr1∆
Lab note: compare protein stability index against 3. Equal or greater, write criterion met. Smaller, write criterion not met.

Answered cases to consult:
### Prompt State whether the measured protein stability index reaches 3, counting equality as reaching it, for GRLLRAMFEICLKRGWG [BRR2]
### Response criterion not met

### Prompt State whether the measured protein stability index reaches 3, counting equality as reaching it, for VSSESSDEAIIPVNKRR [SIR3]
### Response criterion met

### Prompt State whether the measured protein stability index reaches 3, counting equality as reaching it, for SIMPDLYFYRNPEEVEQ [RPS0B]
### Response criterion not met

Further cases:
### Prompt State whether the measured protein stability index reaches 3, counting equality as reaching it, for GGLQKGKLVVSQEMVPR [SIR3]
### Response criterion met

### Prompt State whether the measured protein stability index reaches 3, counting equality as reaching it, for FPVDPTTPVKLGPGIYC [RRP40]
### Response criterion not met

### Prompt State whether the measured protein stability index reaches 3, counting equality as reaching it, for LLVERLKEDDSSLYEAS [RPN1]
### Response criterion met

### Prompt State whether the measured protein stability index reaches 3, counting equality as reaching it, for LENKENGLLNEISRLKT [SMC2]
### Response criterion met

---

Assay procedure: protein stability index of a GFP-peptide fusion (yeast GPS) (PSI 1-4); higher = more stable; sorted into four equal gates, so the index is relative within each strain
Condition details: doa10∆
Measurement name: protein stability index
Provide a numeric answer; units are not to be included.

### Prompt Look up protein stability index for this sequence: AITNTGPREDTTRVGGG [RPS5]
### Response 3.04

### Prompt Look up protein stability index for this sequence: EKESVEKQHENAVLELG [SMC3]
### Response 3.36

---

protein stability index values by entry
Assay procedure: protein stability index of a GFP-peptide fusion (yeast GPS) (PSI 1-4); higher = more stable; sorted into four equal gates, so the index is relative within each strain
Condition details: san1∆
Provide a numeric answer; units are not to be included.

Some sequences with known protein stability index results, for comparison:
### Prompt Look up protein stability index for this sequence: PHIQKMLSILEIFKKGY [POP6]
### Response 3.1

### Prompt Look up protein stability index for this sequence: QGLNILEWLENPSNTPD [FAS1]
### Response 3.41

Shifting focus to the sequence that follows.
### Prompt Look up protein stability index for this sequence: VQRQIEQQKGQQTAQTQ [SNF5]
### Response 3.3

---

Assay procedure: protein stability index of a GFP-peptide fusion (yeast GPS) (PSI 1-4); higher = more stable; sorted into four equal gates, so the index is relative within each strain
Condition details: san1∆
protein stability index values by entry

### Prompt Look up protein stability index for this sequence: ALDIVCSDFVKILNLEK [NUT1]
### Response 2.35

Shifting focus to the sequence that follows.
### Prompt Look up protein stability index for this sequence: STPYLEILVEESGLRPV [PCI8]
### Response 1.54

---

Assay procedure: protein stability index of a GFP-peptide fusion (yeast GPS) (PSI 1-4); higher = more stable; sorted into four equal gates, so the index is relative within each strain
Condition details: doa10∆
protein stability index values by entry
Provide a numeric answer; units are not to be included.

### Prompt Look up protein stability index for this sequence: RIYTNSFIDIMEVLGIE [RPO21]
### Response 2.84

### Prompt Look up protein stability index for this sequence: ADKVYTKENLEVSGENV [QCR2]
### Response 3.44

### Prompt Look up protein stability index for this sequence: VVFDSNEAPPKTSLADW [YMR153W/NUP53]
### Response 3.19

Further cases:
### Prompt Look up protein stability index for this sequence: NSDDILSLHENYPQDEI [POP1]
### Response 2.94

### Prompt Look up protein stability index for this sequence: LAGKRGPKSGSTMGTPT [PGD1]
### Response 3.35

---

Assay procedure: protein stability index of a GFP-peptide fusion (yeast GPS) (PSI 1-4); higher = more stable; sorted into four equal gates, so the index is relative within each strain
Condition details: doa10∆
Lab note: compare protein stability index against 3. Equal or greater, write y. Smaller, write n.

### Prompt State whether the measured protein stability index reaches 3, counting equality as reaching it, for VGASVVVVKNWGAETDE [RPS12]
### Response y

### Prompt State whether the measured protein stability index reaches 3, counting equality as reaching it, for DLSMVPKMKDEEYDDDD [SNF2]
### Response n

### Prompt State whether the measured protein stability index reaches 3, counting equality as reaching it, for QWLIMLGICTHLGCVPI [RIP1]
### Response n

### Prompt State whether the measured protein stability index reaches 3, counting equality as reaching it, for NHSNNDIPTIADEHFWA [BRN1]
### Response y

### Prompt State whether the measured protein stability index reaches 3, counting equality as reaching it, for SHTDQPANVLLVQSLND [NNF1]
### Response n

---

Assay procedure: protein stability index of a GFP-peptide fusion (yeast GPS) (PSI 1-4); higher = more stable; sorted into four equal gates, so the index is relative within each strain
Condition details: ubr1∆
Lab note: compare protein stability index against 2. Equal or greater, write Yes. Smaller, write No.

Answered cases to consult:
### Prompt State whether the measured protein stability index reaches 2, counting equality as reaching it, for CESCSTVLCTPTGGKAK [RPS27B]
### Response Yes

### Prompt State whether the measured protein stability index reaches 2, counting equality as reaching it, for PSLIQEEEEDTTTTANI [NUT1]
### Response Yes

### Prompt State whether the measured protein stability index reaches 2, counting equality as reaching it, for LSIKNSFIINFISNLPN [NUT1]
### Response No

Further cases:
### Prompt State whether the measured protein stability index reaches 2, counting equality as reaching it, for MIDLGFEDQVTNILTKV [PRP28]
### Response Yes

### Prompt State whether the measured protein stability index reaches 2, counting equality as reaching it, for LFMKSLIENCKKRNMPL [SWI1]
### Response Yes

---

Assay procedure: protein stability index of a GFP-peptide fusion (yeast GPS) (PSI 1-4); higher = more stable; sorted into four equal gates, so the index is relative within each strain
Condition details: doa10∆
Lab note: compare protein stability index against 3. Equal or greater, write Condition met. Smaller, write Condition not met.

Answered cases to consult:
### Prompt State whether the measured protein stability index reaches 3, counting equality as reaching it, for ASPHASVRTAVFSALKN [ECM29]
### Response Condition not met

### Prompt State whether the measured protein stability index reaches 3, counting equality as reaching it, for SRDELIRLAKTLKKNNV [RPN10]
### Response Condition not met

### Prompt State whether the measured protein stability index reaches 3, counting equality as reaching it, for TFAKSKNYSRPSTAIHT [SIR4]
### Response Condition not met

### Prompt State whether the measured protein stability index reaches 3, counting equality as reaching it, for ANTGGQDKIELSEEETL [SNF2]
### Response Condition not met

### Prompt State whether the measured protein stability index reaches 3, counting equality as reaching it, for FIVSGTASDQLFGMCES [PUP3]
### Response Condition not met

### Prompt State whether the measured protein stability index reaches 3, counting equality as reaching it, for DDFDMLFGENDTSTQAY [NUT1]
### Response Condition met

### Prompt State whether the measured protein stability index reaches 3, counting equality as reaching it, for RQEVTKFAKANIGYVMG [RPN4]
### Response Condition not met

### Prompt State whether the measured protein stability index reaches 3, counting equality as reaching it, for GRYAGKKVVIVKPHDEG [RPL27A]
### Response Condition met

### Prompt State whether the measured protein stability index reaches 3, counting equality as reaching it, for PANHLQSDFCLSWCPSR [YGL100W/SEH1]
### Response Condition not met

### Prompt State whether the measured protein stability index reaches 3, counting equality as reaching it, for IEELDNPMVPSSVNEDT [PRP8]
### Response Condition met

Further cases:
### Prompt State whether the measured protein stability index reaches 3, counting equality as reaching it, for NTHNKSTKRVTKHPSLK [POP7]
### Response Condition not met

### Prompt State whether the measured protein stability index reaches 3, counting equality as reaching it, for LNICRQCFREKANDIGF [RPS29A]
### Response Condition not met
